B1: CHIT1 (parent)
chain: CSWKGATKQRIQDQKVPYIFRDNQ

- Variants of: B1
- PROTOCOL DETAILS: protein stability index of a GFP-peptide fusion (GPS, HEK-293T) (PSI 1-6); higher = more stable;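 also: lentivirally expressed fusions sorted by FACS into six bins by GFP to DsRed ratio, PSI derived from sequencing read proportions per bin multiplied by bin number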
- CONDITION CONTEXT: c terminus: a fixed tail appended
ENDPOINT LABEL: protein stability index
Answer field: number only, no words.

Some variants with recorded protein stability index:
CSWKGATKQRIQGQKVPYIFRDNQ [D13G]; 2.15
CSWKPATKQRIQDQKVPYIFRDNQ [G5P]; 2.38
CSWKGATKQRIQDQKVPRIFRDNQ [Y18R]; 3.08
CSWKGATKQRIQDQKVPIIFRDNQ [Y18I]; 2.23
CSWKGATCQRIQDQKVPYIFRDNQ [K8C]; 1.76

Switching to the query record.
Would you kindly share the measured protein stability index for CSWKGATKLRIQDQKVPYIFRDNQ [Q9L] ?
1.78
